Assay: Determination of drug solubility in aqueous and organic solvent;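 also: solid drug suspended at 50 mg/mL nominal in each solvent, vortexed and sonicated, then dissolved concentration in filtered supernatant quantified by HPLC against a calibration curve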
Type: physicochemical
Conditions: organic solvent or mixture, thermodynamic from solid; Table 3A; DCM; read-out: Solubility DCM
MEASURED_ATTRIBUTE: solubility

| COMPOUND | MEASURED_ATTRIBUTE | EXPERIMENTAL_RESULT |
| --- | --- | --- |
| CCN[C@H]1CN(CCCOC)S(=O)(=O)c2sc(S(N)(=O)=O)cc21 [Brinzolamide, reference compound] | solubility | < 7.5 mg/mL |
| CCN[C@H]1C[C@H](C)S(=O)(=O)c2sc(S(N)(=O)=O)cc21 [Dorzolamide, reference compound] | solubility | < 1 mg/mL |
| CC(C)OC(=O)CCC/C=C\C[C@@H]1[C@@H](CC[C@@H](O)CCc2ccccc2)[C@H](O)C[C@@H]1O [Latanoprost, reference compound] | solubility | > 50 mg/mL |
| CCCCCCCCCCCCCCCCCC(=O)O[C@@H](C)C(=O)O[C@@H](C)C(=O)O[C@@H](C)C(=O)O[C@@H](C)C(=O)NS(=O)(=O)c1cc2c(s1)S(=O)(=O)C(C)CC2NCC (stereo partly shown) [Compound 12-3] | solubility | > 50 mg/mL |
